# measurementTarget: Human TRPC6 (Homo sapiens)
# Construct: expressed in transfected cells
# Sequence (Q9Y210 1-931): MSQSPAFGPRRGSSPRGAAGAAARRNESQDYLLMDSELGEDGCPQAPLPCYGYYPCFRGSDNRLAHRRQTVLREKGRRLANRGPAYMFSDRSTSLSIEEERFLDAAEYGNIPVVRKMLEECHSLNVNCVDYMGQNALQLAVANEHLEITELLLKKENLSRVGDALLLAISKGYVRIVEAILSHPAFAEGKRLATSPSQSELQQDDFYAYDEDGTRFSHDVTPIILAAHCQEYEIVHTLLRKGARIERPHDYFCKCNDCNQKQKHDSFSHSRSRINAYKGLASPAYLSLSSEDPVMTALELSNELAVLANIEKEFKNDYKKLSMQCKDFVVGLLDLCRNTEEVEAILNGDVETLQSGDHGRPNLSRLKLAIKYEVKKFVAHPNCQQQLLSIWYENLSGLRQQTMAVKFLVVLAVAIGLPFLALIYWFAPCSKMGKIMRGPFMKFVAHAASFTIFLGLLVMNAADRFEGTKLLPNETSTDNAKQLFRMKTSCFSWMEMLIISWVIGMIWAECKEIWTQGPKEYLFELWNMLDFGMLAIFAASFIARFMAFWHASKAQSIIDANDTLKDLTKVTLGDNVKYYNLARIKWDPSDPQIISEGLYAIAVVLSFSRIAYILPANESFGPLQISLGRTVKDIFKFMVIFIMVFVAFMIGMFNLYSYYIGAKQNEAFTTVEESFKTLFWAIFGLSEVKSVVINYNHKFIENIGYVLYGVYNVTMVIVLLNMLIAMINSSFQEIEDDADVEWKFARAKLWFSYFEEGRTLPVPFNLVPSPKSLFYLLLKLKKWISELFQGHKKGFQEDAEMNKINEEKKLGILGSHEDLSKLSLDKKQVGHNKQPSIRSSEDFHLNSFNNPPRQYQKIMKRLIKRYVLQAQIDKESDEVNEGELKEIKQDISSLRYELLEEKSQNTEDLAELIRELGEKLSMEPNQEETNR
# assay: Evaluation of TRPC6 channel inhibitory activity (1), FLIPR Calcium 5 Assay Kit, OAG stimulation (Compound Nos. 1-1293)
# Format: cell-based
# measurementSetup: Human TRPC6 stably-expressing cells, OAG 30 μM, FLIPR Calcium 5 Assay Kit; read-out: Inhibitory activity (pIC50 class) (converted)
Measured IC50 of individual entries

1) Cc1c(Oc2cc(C#N)ccc2-c2ncc(CCN)cn2)cnn1C(C)C = 10 to 1000 nM

Give the measured IC50 of Cc1nc(OCC2(C)COC2)cc(Oc2cc(C#N)ccc2-c2ncc(CN)cn2)n1 .
> 1000 nM

Give the measured IC50 of Cn1nc(C2CC2)cc1Oc1cc(F)ccc1-c1ccc(CN)cn1 .
10 to 1000 nM

Give the measured IC50 of N#Cc1ccc(-c2ccc(CCN)cc2)c(Oc2cnnc(-c3ccccc3F)c2)c1 .
10 to 1000 nM

Give the measured IC50 of Cc1cc(Oc2cc(C#N)ccc2-c2ccc([C@H](O)CN)cn2)cc(-c2nccs2)n1 .
10 to 1000 nM

Give the measured IC50 of NCCc1ccc(-c2ccc(F)cc2C(=O)c2cnn(C3CCC3)c2)nc1 .
< 10 nM

====

Measured IC50 of individual entries
# measurementTarget: Human TRPC6 (Homo sapiens)
# Construct: expressed in transfected cells
# Sequence (Q9Y210 1-931): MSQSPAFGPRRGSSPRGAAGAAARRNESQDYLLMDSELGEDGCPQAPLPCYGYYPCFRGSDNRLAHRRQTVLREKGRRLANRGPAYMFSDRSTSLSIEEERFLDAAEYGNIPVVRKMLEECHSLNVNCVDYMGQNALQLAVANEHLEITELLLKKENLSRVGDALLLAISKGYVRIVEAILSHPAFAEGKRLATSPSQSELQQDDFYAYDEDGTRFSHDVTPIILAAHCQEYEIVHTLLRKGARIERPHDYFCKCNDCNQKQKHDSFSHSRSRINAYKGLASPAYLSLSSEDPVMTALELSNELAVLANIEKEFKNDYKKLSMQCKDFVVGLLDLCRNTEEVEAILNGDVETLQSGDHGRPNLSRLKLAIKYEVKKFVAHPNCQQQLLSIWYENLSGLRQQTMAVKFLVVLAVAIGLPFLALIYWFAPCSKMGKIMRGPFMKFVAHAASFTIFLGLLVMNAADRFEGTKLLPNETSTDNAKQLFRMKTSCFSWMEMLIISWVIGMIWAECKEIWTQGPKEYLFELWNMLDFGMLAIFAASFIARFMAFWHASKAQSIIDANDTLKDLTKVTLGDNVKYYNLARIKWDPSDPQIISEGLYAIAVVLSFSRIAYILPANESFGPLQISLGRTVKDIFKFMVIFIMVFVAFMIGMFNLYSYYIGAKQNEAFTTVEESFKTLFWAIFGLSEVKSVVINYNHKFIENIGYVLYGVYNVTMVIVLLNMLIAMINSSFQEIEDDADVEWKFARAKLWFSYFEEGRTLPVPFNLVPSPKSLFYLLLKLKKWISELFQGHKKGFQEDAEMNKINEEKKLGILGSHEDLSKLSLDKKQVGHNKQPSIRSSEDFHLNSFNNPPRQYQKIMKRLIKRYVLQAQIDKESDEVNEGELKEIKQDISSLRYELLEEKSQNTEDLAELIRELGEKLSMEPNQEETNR
# assay: Evaluation of TRPC6 channel inhibitory activity (2), HEK293 cells with stably introduced human TRPC6, OAG stimulation, FLIPR tetra (Compound Nos. 1293 to 1405)
# Type: cell-based
# measurementSetup: HEK293 cells with stably introduced human TRPC6, OAG 50 μM/0.5% DMSO, read-out: Inhibitory activity (pIC50 class) (converted)

Worked set:
1) Cn1nc(-c2ccccn2)cc1Oc1cc(C#N)ccc1-c1ccc([C@@H](F)CN)cn1 = < 10 nM
2) Cn1nc(-c2ccccn2)cc1Oc1cc(C#N)ccc1-c1ncc([C@@H](F)CN)cn1 = < 10 nM
3) Cc1cc(Oc2cc(C#N)ccc2-c2ccc([C@@H](F)CN)cn2)cc(N2CCOCC2)n1 = < 10 nM

Moving on to the next compound.
Write down the reported IC50 of Cn1nc(-c2ccccc2)nc1Oc1cc(Cl)ccc1-c1ncc(CN)cn1 , test system: Human TRPC6 (Homo sapiens).
> 1000 nM

====

Measured IC50 of individual entries
# measurementTarget: Human TRPC6 (Homo sapiens, UniProt Q9Y210)
# Construct: expressed in transfected cells
# assay: Evaluation of TRPC6 channel inhibitory activity (1), FLIPR Calcium 5 Assay Kit, OAG stimulation (Compound Nos. 1-1293)
# Assay type: cell-based
# measurementSetup: Human TRPC6 stably-expressing cells, OAG 30 μM, FLIPR Calcium 5 Assay Kit; read-out: Inhibitory activity (pIC50 class) (converted)

Worked set:
1. Cn1nc(C2CC2)cc1Oc1cc(C#N)ccc1-c1cc(C(O)CN)c(Cl)cn1 (centres unmarked) = 10 to 1000 nM
2. CC(C)(C)COc1cc(Oc2cc(C#N)ccc2-c2ccc(CCN)cc2)cnn1 = 10 to 1000 nM
3. Cn1nc(C2CC2)cc1Oc1cc(F)ccc1-c1ccc(CCN)cn1 = < 10 nM
4. Cn1nc(-c2ccccc2)cc1Oc1cc(C#N)ccc1-c1ccc2c(CN)noc2c1 = > 1000 nM
5. Cc1cc(Oc2cc(C#N)ccc2-c2ncc(CC(C)(C)N)cn2)cc(N2CCOCC2)n1 = 10 to 1000 nM
6. Cc1cc(Oc2cc(C#N)ccc2-c2ccc([C@@H](O)CN)cn2)cc(N2CCOCC2)n1 = < 10 nM

Give the measured IC50 of Cn1nc(-c2ccccc2)cc1Oc1nc(Cl)ccc1-c1ccc(CN)cn1 .
10 to 1000 nM

Give the measured IC50 of Cc1nc(Oc2cc(C#N)ccc2-c2ccc(CN)cn2)cc(N2CCCC2)n1 .
< 10 nM

Give the measured IC50 of Cc1cc(Oc2cc(C#N)ccc2-c2ccc([C@H](O)CN)cn2)cc(-c2cnccn2)n1 .
10 to 1000 nM

Give the measured IC50 of Cc1cc(Oc2cc(C#N)ccc2-c2ccc(C(N)C(=O)O)cn2)cc(N2CCOCC2)n1 (centres unmarked) .
10 to 1000 nM

Give the measured IC50 of Cc1cc(Oc2cc(C#N)ccc2-c2ncc(CN)cn2)cc(-c2ccccn2)n1 .
10 to 1000 nM

Give the measured IC50 of N#Cc1ccc(-c2ncc(CCN)cn2)c(C(=O)c2cnn(-c3nccs3)c2)c1 .
< 10 nM

Give the measured IC50 of Cc1cc(Oc2cc(C#N)ccc2-c2ccc([C@H](O)CN)cn2)cc(OC2COC2)n1 .
> 1000 nM

Give the measured IC50 of N#Cc1ccc(-c2ncc(CCN)cn2)c(C(=O)c2cnc(C(F)(F)F)s2)c1 .
10 to 1000 nM

Give the measured IC50 of N#Cc1ccc(-c2ccc([C@@H](O)CN)cn2)c(Cn2cnc(-c3ccccc3)c2)c1 .
10 to 1000 nM

Give the measured IC50 of Cc1cc(Oc2cc(C#N)ccc2-c2ncc(CCN)cn2)cc(N2CC(F)C2)n1 .
< 10 nM

Give the measured IC50 of Cn1nc(C2CC2)cc1Oc1cc(C#N)ccc1-c1cccn(CCN)c1=O .
10 to 1000 nM

Give the measured IC50 of CCN(CC)c1cc(Oc2cc(C#N)ccc2-c2ccc([C@@H](F)CN)cn2)n(C)n1 .
< 10 nM

Give the measured IC50 of N#Cc1ccc(-c2ccc(CCN)cn2)c(Oc2nnc(C(F)(F)F)s2)c1 .
10 to 1000 nM

Give the measured IC50 of Cc1cc(Oc2cc(C#N)ccc2-c2ccc(CN)cn2)cc(NC2CCOCC2)n1 .
> 1000 nM

Give the measured IC50 of Cc1cc(Oc2cc(C#N)ccc2-c2ncc(CCN)cn2)cc(N2CCO[C@@H](C(F)F)C2)n1 .
< 10 nM

Give the measured IC50 of Cc1cc(Oc2cc(C#N)ccc2-c2ccc(C3OCCCC3N)cn2)cc(N2CCOCC2)n1 (centres unmarked) .
10 to 1000 nM

Give the measured IC50 of Cc1nc(Oc2cc(C#N)ccc2-c2ncc(CN)cn2)cc(OC2CC2)n1 .
> 1000 nM

Give the measured IC50 of Cc1cc(Oc2cc(C#N)ccc2-c2ncc(CCN)cn2)cc(N2CCOC[C@@H]2C)n1 .
< 10 nM
